# assay protocol: cell survival, CCK-8 assay
# Format: cell-based, human
# assay context: human, Caco-2 cells; Caco-2, 140 μM, incubation 24 h; read-out: cell viability (viable cell number)
measure: viability at 24 h, 140 µM

{"compound": "CC1OC(OCC2OC(Oc3c(-c4ccc(O)c(O)c4)oc4c5c(cc(O)c4c3=O)OC(O)CC5)C(O)C(O)C2O)C(O)C(O)C1O (racemic)", "measure": "viability at 24 h, 140 µM", "result": "> 75%"}

====

# assay protocol: cell survival, CCK-8 assay
# Format: cell-based, human
# assay context: human, GES-1 cells; GES-1, CCK-8; read-out: IC50 (cytotoxicity)
measure: IC50 at 48 h

{"molecule": "CC1OC(OCC2OC(Oc3c(-c4ccc(O)c(O)c4)oc4c5c(cc(O)c4c3=O)OC(O)CC5)C(O)C(O)C2O)C(O)C(O)C1O (racemic) [RAC]", "result": "> 140 µM"}

====

# assay protocol: cell survival, CCK-8 assay
# Format: cell-based, human
# assay context: human, Caco-2 cells; Caco-2, CCK-8; read-out: IC50 (cytotoxicity)

{"molecule": "CC1OC(OCC2OC(Oc3c(-c4ccc(O)c(O)c4)oc4c5c(cc(O)c4c3=O)OC(O)CC5)C(O)C(O)C2O)C(O)C(O)C1O (racemic) [RAC]", "IC50 at 48 h": "> 140 µM"}

====

# assay protocol: cell survival, CCK-8 assay
# Type: cell-based, human
# assay context: human, GES-1 cells; GES-1, 140 μM, incubation 24 h; read-out: cell viability (viable cell number)

{"molecule": "CC1OC(OCC2OC(Oc3c(-c4ccc(O)c(O)c4)oc4c5c(cc(O)c4c3=O)OC(O)CC5)C(O)C(O)C2O)C(O)C(O)C1O (racemic)", "viability at 24 h, 140 µM": "> 75%"}

====

# System: GES-1 cells
# assay protocol: cell survival, CCK-8 assay
# Type: cell-based, human
# assay context: GES-1, CCK-8; read-out: IC50 (cytotoxicity)

{"cpd smiles": "C=CC=O", "IC50": "< 20 µM"}
